- Tested on: MCF10A
- ASSAY COMMENT: 5+ nucleoli phenotype percent effect, hitpick validation (relative to siNT 0% and siKIF11 100%); higher = more cells with five or more nucleoli
- SETUP CONDITIONS: 20 nM; 72 h
MEASUREMENT TYPE: 5+ nucleoli phenotype percent effect (%)

- SEQUENCE RECORD: "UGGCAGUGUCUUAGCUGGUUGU [hsa-miR-34a-5p]"
  MEASUREMENT TYPE: "5+ nucleoli phenotype percent effect"
  REPORTED RESULT: 19.4
- SEQUENCE RECORD: "GGCGACAAAACGAGACCCUGUC [hsa-miR-1273c]"
  MEASUREMENT TYPE: "5+ nucleoli phenotype percent effect"
  REPORTED RESULT: -8.2
- SEQUENCE RECORD: "CCGUCGCCGCCACCCGAGCCG [hsa-miR-1181]"
  MEASUREMENT TYPE: "5+ nucleoli phenotype percent effect"
  REPORTED RESULT: 40.2
- SEQUENCE RECORD: "CAAUGGCACAAACUCAUUCUUGA [hsa-miR-5197-5p]"
  MEASUREMENT TYPE: "5+ nucleoli phenotype percent effect"
  REPORTED RESULT: 20.5
- SEQUENCE RECORD: "AGGAGCUAUCCACUCCAGGUGUCC [hsa-miR-6500-5p]"
  MEASUREMENT TYPE: "5+ nucleoli phenotype percent effect"
  REPORTED RESULT: 5.46
- SEQUENCE RECORD: "CAAAGGUAUUUGUGGUUUUUG [hsa-miR-548m]"
  MEASUREMENT TYPE: "5+ nucleoli phenotype percent effect"
  REPORTED RESULT: -10.9
- SEQUENCE RECORD: "AGAAGGCACUAUGAGAUUUAGA [hsa-miR-605-3p]"
  MEASUREMENT TYPE: "5+ nucleoli phenotype percent effect"
  REPORTED RESULT: -15.9
- SEQUENCE RECORD: "UAGGAGCUCAACAGAUGCCUGUU [hsa-miR-3139]"
  MEASUREMENT TYPE: "5+ nucleoli phenotype percent effect"
  REPORTED RESULT: -8.78
- SEQUENCE RECORD: "CUCUCCUCCCGGCUUC [hsa-miR-4279]"
  MEASUREMENT TYPE: "5+ nucleoli phenotype percent effect"
  REPORTED RESULT: -6.3
- SEQUENCE RECORD: "AAGGAGCUCACAGUCUAUUGAG [hsa-miR-28-5p]"
  MEASUREMENT TYPE: "5+ nucleoli phenotype percent effect"
  REPORTED RESULT: -2.58
- SEQUENCE RECORD: "AGAGCAGAAGGAUGAGAU [hsa-miR-4468]"
  MEASUREMENT TYPE: "5+ nucleoli phenotype percent effect"
  REPORTED RESULT: -14.8
- SEQUENCE RECORD: "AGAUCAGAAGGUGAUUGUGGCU [hsa-miR-383-5p]"
  MEASUREMENT TYPE: "5+ nucleoli phenotype percent effect"
  REPORTED RESULT: -5.3
- SEQUENCE RECORD: "CAUCUGGCAUCCGUCACACAGA [hsa-miR-3126-3p]"
  MEASUREMENT TYPE: "5+ nucleoli phenotype percent effect"
  REPORTED RESULT: -8.87
- SEQUENCE RECORD: "CAAUCAGCAAGUAUACUGCCCU [hsa-miR-34a-3p]"
  MEASUREMENT TYPE: "5+ nucleoli phenotype percent effect"
  REPORTED RESULT: 1.68
- SEQUENCE RECORD: "AGUGUGGCUUUCUUAGAGC [hsa-miR-644a]"
  MEASUREMENT TYPE: "5+ nucleoli phenotype percent effect"
  REPORTED RESULT: -13.1
- SEQUENCE RECORD: "UCAUAGCCCUGUACAAUGCUGCU [hsa-miR-103b]"
  MEASUREMENT TYPE: "5+ nucleoli phenotype percent effect"
  REPORTED RESULT: -15
- SEQUENCE RECORD: "GGCUCCUCCUCUCAGGAUGUG [hsa-miR-4268]"
  MEASUREMENT TYPE: "5+ nucleoli phenotype percent effect"
  REPORTED RESULT: 51.9
- SEQUENCE RECORD: "CUGGCGGAGCCCAUUCCAUGCCA [hsa-miR-4730]"
  MEASUREMENT TYPE: "5+ nucleoli phenotype percent effect"
  REPORTED RESULT: -12.7
- SEQUENCE RECORD: "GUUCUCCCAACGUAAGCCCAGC [hsa-miR-629-3p]"
  MEASUREMENT TYPE: "5+ nucleoli phenotype percent effect"
  REPORTED RESULT: 96.3
- SEQUENCE RECORD: "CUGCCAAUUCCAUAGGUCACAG [hsa-miR-192-3p]"
  MEASUREMENT TYPE: "5+ nucleoli phenotype percent effect"
  REPORTED RESULT: -12.3
- SEQUENCE RECORD: "UGCCUGUCUACACUUGCUGUGC [hsa-miR-214-5p]"
  MEASUREMENT TYPE: "5+ nucleoli phenotype percent effect"
  REPORTED RESULT: -11.5
